experiment: Intrinsic clearance in human liver microsomes assessed per mg protein after 60 mins in presence of NADPH generating system; type: ADME, microsome; details: 1 h
Record form. Attribute: log10 CLH. Fill in for each entry.
The base-10 logarithm of CLH, taken with CLH in µL/min/mg, is what appears here.

Reference set, count: 5
| substance_smiles | log10 CLH |
| --- | --- |
| O=C(Nc1ccc(F)c(C(F)(F)F)c1)Nc1cnccn1 | 2.32 |
| Cc1cc(NC(=O)Nc2ccc(F)c(C(F)(F)F)c2)on1 | 1.86 |
| NC(=O)c1ccc(NC(=O)Nc2ccc(F)c(C(F)(F)F)c2)cc1 | 1.45 |
| O=C(Nc1ccc(F)c(C(F)(F)F)c1)Nc1ccc(F)c(C(F)(F)F)c1 | 1.00 |
| O=C(Nc1cccnc1)Nc1ccc(F)c(C(F)(F)F)c1 | 1.11 |

Each compound below has a reported value. Please supply its log10 CLH.
1. O=C(Nc1ccncc1)Nc1ccc(F)c(C(F)(F)F)c1
2. CC(=O)c1ccc(NC(=O)Nc2ccc(F)c(C(F)(F)F)c2)cc1
3. NC(=O)c1ccccc1NC(=O)Nc1ccc(F)c(C(F)(F)F)c1
4. O=C(Nc1cnccn1)Nc1cnccn1
5. O=C(Nc1ccc(F)c(C(F)(F)F)c1)Nc1ccccn1

1. 1.08
2. 1.20
3. 1.91
4. 1.26
5. 2.27
